Test system: mouse RAW 264.7 cells incubated with E. coli O113 LPS
measurementContext: RAW 264.7 cells with E. coli O113 LPS; concentration reversing LPS growth inhibition by 50%
measuredAttribute: In Vitro LPS Neutralization EC50

- H-KKWLIQAKK-NH2 [XMP.345P]: >50 µg/mL
- H-KKLLLLLKK-NH2 [XMP.385P]: 2.56 ± 0.23 µg/mL
- H-HHWLIQLHH-NH2 [XMP 337P]: >50 µg/mL

* * *

System: mouse RAW 264.7 cells
measurementContext: RAW 264.7 cell growth inhibited by 50%
measuredAttribute: IC50 (toxicity/growth inhibition of peptide)

• CCCCCCCC(=O)N[C@H](CCCCN)C(=O)N[C@H](Cc1c[nH]c2ccccc12)C(=O)N[C@H](CC(C)C)C(=O)N[C@@H](C(=O)N[C@H](CCC(N)=O)C(=O)N[C@H](CC(C)C)C(=O)N[C@H](Cc1ccccc1)C(=O)N[C@H](Cc1c[nH]cn1)C(=O)N[C@H](CCCCN)C(=O)N[C@H](CCCCN)C(N)=O)[C@H](C)CC = 10.96 ± 0.52 µg/mL

* * *

Test system: C. albicans (CA-1, Strain SLU-1)
protocolSummary: Radial diffusion assay
Assay type: cell-based, Candida albicans
measurementContext: crude peptide; nanomoles required to achieve a net 30 mm^2 zone (log titration curve)
Protocol: In the radial diffusion assay procedures, the CA-1 cultures and peptide solutions were prepared as in the broth assay procedure described above. […] Clear zones of growth inhibition around each well were measured with calipers. The actual area of growth inhibition (mm^2) was calculated by subtracting the area of the well. […]
measuredAttribute: Plate Assay (nmol), crude peptide activity

* CC[C@H](C)[C@H](NC(=O)[C@H](CC(C)C)NC(=O)[C@@H](N)Cc1c[nH]c2ccccc12)C(=O)N[C@@H](CCC(N)=O)C(=O)N[C@@H](CC(C)C)C(=O)N[C@@H](Cc1ccccc1)C(=O)N[C@@H](Cc1c[nH]cn1)C(=O)N[C@@H](CCCCN)C(=O)N[C@@H](CCCCN)C(N)=O [Peptide 298] | 2.628 nmol
* CC[C@H](C)[C@H](NC(=O)[C@H](CC(C)C)NC(=O)[C@H](Cc1c[nH]c2ccccc12)NC(=O)[C@@H](N)CCCCN)C(=O)N[C@@H](CCC(N)=O)C(=O)N[C@@H](CC(C)C)C(=O)N[C@@H](Cc1ccccc1)C(=O)N[C@@H](Cc1c[nH]cn1)C(=O)N[C@@H](CCCCN)C(=O)N[C@@H](CCCCN)C(N)=O [Peptide 293] | 1.156 nmol
* CC[C@H](C)[C@H](NC(=O)[C@H](CC(C)C)NC(=O)[C@@H](N)Cc1c[nH]c2ccccc12)C(=O)N[C@@H](CCC(N)=O)C(=O)N[C@@H](CC(C)C)C(=O)N[C@@H](Cc1ccccc1)C(=O)N[C@@H](Cc1c[nH]cn1)C(=O)N[C@@H](CCCCN)C(N)=O [Peptide 303] | >4.694 nmol
* CC[C@H](C)[C@H](NC(=O)[C@H](CC(C)C)NC(=O)[C@H](Cc1c[nH]c2ccccc12)NC(=O)[C@@H](N)CCCCN)C(=O)N[C@@H](CCC(N)=O)C(=O)N[C@@H](CC(C)C)C(=O)N[C@@H](Cc1ccccc1)C(=O)N[C@@H](Cc1c[nH]cn1)C(=O)N[C@@H](CCCCN)C(N)=O [Peptide 297] | 1.817 nmol

* * *

protocolSummary: Serum stability, anti-fungal activity after serum incubation by radial diffusion bioassay
Format: in vitro ADME, rat or human serum
measurementContext: Activity in Serum t ½ (hr.)
measuredAttribute: half-life at 0.5 mg/mL (h)

* H-KKLLLLLKK-NH2 [XMP.385] | 2.7
* H-KKWLIQLFKK-NH2 [XMP.351] | 0.4
* H-PWAIQLFHKK-NH2 [XMP.387] | 2.3
* Ac-PWLIQLFHKK-NH2 [XMP.356] | 0.9
* H-PWLIQLFHKK-NH2 [XMP.355] | 5.7
* H-KKWAIQLKK-NH2 [XMP.344] | 3.3
* H-KWLIQLFHKP-NH2 [XMP.357] | 0.8
* H-KKKWLIQLKK-NH2 [XMP.348] | 5.5
* H-KSKVGYLIQLFHKK-NH2 [XMP.139] | 10.6
* H-KKKWAIQLKK-NH2 [XMP.377] | 1.8
* H-SKVKWLIQLFHKK-NH2 [XMP.284] | 14.6
* H-KKWLIQLKKK-NH2 [XMP.349] | 3.3
* H-KKLQLLLKK-NH2 [XMP.381] | 0.8
* H-GWLIQLFHKK-NH2 [XMP.388] | 1.4
* H-KKWLIQAKK-NH2 [XMP.345] | 2.7
* H-KKPWAIQLKK-NH2 [XMP.379] | 0.3
* H-KKWLIQLFHKK-NH2 [XMP.352] | 1.2
* H-KKWLIQLFHKP-NH2 [XMP.358] | 1.6

* * *

protocolSummary: in vitro
Assay type: in vitro ADME, rat or human serum
measurementContext: serum, half-life of peptide in serum as detected by HPLC analysis; read-out: HPLC Peptide in Serum t ½ (converted)
Square brackets hold non-standard residues; d marks the D form. Peptide text beside a SMILES is read from it. * marks the point of attachment. d2Nal = N[C@H](Cc1ccc2ccccc2c1)C(=O)O; Lauroyl = CCCCCCCCCCCC(=O)*; Orn = NCCC[C@H](N)C(=O)O
measuredAttribute: log10 half-life at 0.5 mg/mL (log10 of the value in h)

* CC[C@H](C)[C@H](NC(=O)[C@H](CC(C)C)NC(=O)[C@@H](Cc1c[nH]c2ccccc12)NC(=O)[C@H](N)CCCCN)C(=O)N[C@@H](CCC(N)=O)C(=O)N[C@@H](CC(C)C)C(=O)N[C@@H](Cc1ccccc1)C(=O)N[C@@H](Cc1c[nH]cn1)C(=O)N[C@H](CCCCN)C(=O)N[C@H](CCCCN)C(N)=O | 1.07
* CC[C@H](C)[C@H](NC(=O)[C@H](CC(C)C)NC(=O)[C@H](Cc1c[nH]c2ccccc12)NC(=O)[C@@H](N)CCCCN)C(=O)N[C@@H](CCCN)C(=O)N[C@@H](CC(C)C)C(=O)N[C@@H](Cc1ccccc1)C(=O)N[C@@H](Cc1c[nH]cn1)C(=O)N[C@@H](CCCCN)C(=O)N[C@@H](CCCCN)C(N)=O [XMP.369] (H-KWLI[Orn]LFHKK-NH2) | -0.22
* CC[C@H](C)[C@H](NC(=O)[C@H](CC(C)C)NC(=O)[C@H](Cc1c[nH]c2ccccc12)NC(=O)[C@H](CCCCN)NC(=O)[C@@H]1CCCN1)C(=O)N[C@@H](CCC(N)=O)C(=O)N[C@@H](CC(C)C)C(=O)N[C@@H](CCCCN)C(=O)N[C@@H](CCCCN)C(N)=O | 0.46
* CC[C@@H](C)[C@@H](NC(=O)[C@@H](CCC(N)=O)NC(=O)[C@@H](CC(C)C)NC(=O)[C@@H](Cc1ccccc1)NC(=O)[C@@H](Cc1c[nH]cn1)NC(=O)[C@@H](CCCCN)NC(=O)[C@@H](CCCCN)NC(C)=O)C(=O)N[C@H](CC(C)C)C(=O)N[C@H](Cc1c[nH]c2ccccc12)C(=O)N[C@H](CCCCN)C(N)=O | 1.53
* CCCCCCCCCCCC(=O)N[C@@H](CCCCN)C(=O)N[C@@H](CCCCN)C(=O)N[C@@H](Cc1c[nH]c2ccccc12)C(=O)N[C@@H](C)C(=O)N[C@H](C(=O)N[C@@H](CCC(N)=O)C(=O)N[C@@H](CC(C)C)C(=O)N[C@@H](CCCCN)C(=O)N[C@@H](CCCCN)C(N)=O)[C@@H](C)CC [XMP.411] (Lauroyl-KKWAIQLKK-NH2; C-terminus assumed) | 0.99
* CC[C@H](C)[C@H](NC(=O)[C@H](CC(C)C)NC(=O)[C@H](Cc1c[nH]c2ccccc12)NC(=O)[C@H](CCCCN)NC(=O)[C@H]1CCCN1)C(=O)N[C@@H](CCC(N)=O)C(=O)N[C@@H](CC(C)C)C(=O)N[C@@H](CCCCN)C(=O)N[C@@H](CCCCN)C(N)=O | 0.51
* CC[C@H](C)[C@H](NC(=O)[C@H](CC(C)C)NC(=O)[C@@H](Cc1ccc2ccccc2c1)NC(=O)[C@H](CCCCN)NC(=O)[C@@H](N)CCCCN)C(=O)N[C@@H](CC(C)C)C(=O)N[C@@H](CC(C)C)C(=O)N[C@@H](CCCCN)C(=O)N[C@@H](CCCCN)C(N)=O [XMP.347] (H-KK[d2Nal]LILLKK-NH2) | 0.40
* CC[C@H](C)[C@H](NC(=O)[C@H](CC(C)C)NC(=O)[C@H](Cc1c[nH]c2ccccc12)NC(=O)[C@H](CCCCN)NC(C)=O)C(=O)N[C@@H](CCCN)C(=O)N[C@@H](CC(C)C)C(=O)N[C@@H](Cc1ccccc1)C(=O)N[C@@H](Cc1c[nH]cn1)C(=O)N[C@@H](CCCCN)C(=O)N[C@@H](CCCCN)C(N)=O [XMP.370] (Ac-KWLI[Orn]LFHKK-NH2) | 0.46
